Tested on: SR
experiment_description: NCI tumour cell line growth inhibition, 48 h
Active and inactive are the calls of the source. No stated cut-off is given here; in the data, active = GI50 up to about 1.1 µM and inactive = higher.
Each entry below carries its reported GI50.

# molecule, GI50
measured = [
    ("CON(C)C(=O)CNC(=O)OCC1c2ccccc2-c2ccccc21", "30.6 µM (inactive)"),
    ("COC(=O)c1ccc2c(c1)CCN2C(=O)c1cc2c(cc1Br)OCO2", "0.0817 µM (active)"),
    ("C/C(=N\\NC(=S)N1CCN(c2ccccn2)CC1)c1cccc(C)n1", "1.44 µM (inactive)"),
    ("CCc1cc2c(cc1O)CC[C@@H]1[C@@H]2CC[C@]2(C)[C@@H](O)CC[C@@H]12", "3.08 µM (inactive)"),
    ("COc1ccc2c(c1O)C13CCN(C)C(C2)C1CCC1(C3)OCCO1 (stereo not drawn)", "> 100 µM (inactive)"),
    ("CCOP(=O)(C/C(=N/NC(C)(C)C)C(=O)Nc1nc2ccc(C)cc2s1)OCC", "> 100 µM (inactive)"),
    ("CC(=O)n1nc(-c2ccccc2)n(/N=C/c2ccc([N+](=O)[O-])o2)c1=O", "3.08 µM (inactive)"),
    ("NNC(=S)N/N=C(/C(=O)Nc1ccc([N+](=O)[O-])cc1)c1nc2ccc([N+](=O)[O-])cc2nc1O", "> 100 µM (inactive)"),
    ("CC(=O)N(C(C)=O)c1ncc(-n2nc(-c3ccccc3)cc2-c2ccccc2)c(-c2ccccc2)n1", "3.5 µM (inactive)"),
    ("C=CCC1(O)c2ccccc2C(=O)c2c(O)ccc(O)c21 (stereo not drawn)", "5.48 µM (inactive)"),
    ("Cc1nn(-c2ccccc2)c(C)c1/C=N/N=C1\\SCC(=O)N1c1ccccc1", "25.1 µM (inactive)"),
    ("O=c1n(/N=C/c2ccccc2)c(=O)n2n1C1C=CC2CC1", "> 100 µM (inactive)"),
    ("Cn1ccnc1Sc1ccc(/C=N\\NC(=O)c2cccc(F)c2)cc1[N+](=O)[O-]", "33.2 µM (inactive)"),
    ("C[C@]12CCc3nn(-c4ccccc4)nc3C1CC[C@@H]1C2CC[C@]2(C)C(=O)CCC12 (stereo partly drawn)", "> 100 µM (inactive)"),
    ("O=C(Nc1ccc2ccccc2c1)c1cc2cc(CCl)ccc2oc1=O", "> 100 µM (inactive)"),
    ("CCCc1ccc(/N=C\\c2cc(OC)c(OC)c(OC)c2)cc1", "55.5 µM (inactive)"),
    ("COc1ccc2cc(/C=N/NC(=O)Nc3ccccc3)ccc2c1", "> 100 µM (inactive)"),
    ("COC(=O)c1ccccc1/C=C1\\Cc2ccc3c(c2C1=O)CCC3", "> 100 µM (inactive)"),
]

---

Test system: K562
experiment_description: NCI tumour cell line growth inhibition, 48 h
Activity calls are given as the source filed them. No stated cut-off is given here; in the data, active = GI50 up to about 1.1 µM and inactive = higher.
Outcome codes: active, inactive

# molecule, label_class
rows = [
    ("O=C(Nc1ccc2ccccc2c1)c1cc2cc(CCl)ccc2oc1=O", "inactive"),
    ("CCCCc1c(O)nc(Nc2nc3ccccc3[nH]2)[nH]c1=O", "inactive"),
    ("CC(C)=CCC/C(C)=C/CC/C(C)=C/C1CCC(=O)C1(C)C (stereo unspecified)", "inactive"),
    ("CCCCCCCCCCC(C)CCCCCCC(=O)O (stereo unspecified)", "inactive"),
    ("COc1ccc(Oc2cccc(/C=C3/C(=O)Nc4ccccc43)c2)cc1", "inactive"),
    ("COC(O)C(=O)c1ccc2c(c1)CC1(C2)Cc2cc3c(cc2C1=O)CCC3 (stereo unspecified)", "inactive"),
    ("COc1ccc(/N=C2\\C(=O)Nc3ccc(Br)cc32)cc1", "inactive"),
    ("[N-]=[N+]=CC(=O)c1ccccc1C#CCCc1ccccc1", "inactive"),
    ("COC(=O)c1sc(=NC(=S)N2CCCCC2)sc1C(=O)OC", "inactive"),
    ("CCN1CCC(O)(/C=C/c2ccc(Cl)c(Cl)c2)C(C(=O)/C=C/c2ccc(Cl)c(Cl)c2)C1 (stereo unspecified)", "active"),
    ("C=C1C(=O)OC2C1C(OC(=O)/C(C)=C\\C)CC1(CO1)C1C(O)C=C(C)C21O (stereo unspecified)", "inactive"),
]

---

System: HL-60
experiment_description: NCI tumour cell line growth inhibition, 48 h
Active and inactive are the calls of the source. Cut-off read from the data, not from the text of the source: active = GI50 up to about 1.1 µM and inactive = higher.
Outcome codes: true = active, false = inactive

# compound, label_class
rows = [
    ("O=[N+]([O-])c1ccc(N/N=C2\\C=CCCC2)c([N+](=O)[O-])c1", "false"),
    ("COc1cc(/C=C2\\CCC(C)c3c2nc(N)c(C#N)c3-c2cc(OC)c(OC)c(OC)c2)cc(OC)c1OC (stereo unspecified)", "false"),
    ("CC1=CCP(C(F)(F)F)P(C(F)(F)F)C1 (stereo unspecified)", "false"),
    ("COc1cccc2c1C(=O)c1c(O)c3c(c(O)c1C2=O)C[C@@](O)(/C(C)=N/NC(=O)c1ccccc1)C[C@@H]3OC1CC(N)C(O)C(C)O1 (stereo partly specified)", "true"),
    ("COc1ccc(C)cc1NC(=S)N/N=C/c1ccco1", "false"),
    ("O=C(O)CCCCCO", "false"),
    ("O=C(CN1CCOCC1)c1ccc2[nH]c(=O)oc2c1", "false"),
    ("CCN1C(=O)C(N=[N+]=[N-])(c2ccccc2)C(=O)c2ccccc21 (stereo unspecified)", "false"),
    ("CN(NC(=O)/C(=C/c1ccc(O)cc1)NC(=O)c1ccccc1)c1ccnc2cc(Cl)ccc12", "false"),
    ("COc1ccc(-c2cs/c(=N\\c3ccccc3)n2CC(O)c2ccc([N+](=O)[O-])cc2)cc1 (stereo unspecified)", "false"),
    ("C=C(CCCCC)CN1CCCC1C(C)=O (stereo unspecified)", "false"),
    ("COC(=O)[C@@H]1Cc2c([nH]c3ccccc23)[C@H](c2ccccc2)N1", "false"),
    ("NCCN(CCN)/[N+]([O-])=N/O", "false"),
    ("Cc1cc(NC(=O)NC(=O)c2ccccc2NC(=O)CN(C)C)ccc1Oc1ncc(Br)cn1", "true"),
    ("O=C(/N=N/C(=O)OCc1ccccc1)OCc1ccccc1", "false"),
    ("CN(C)CCCNc1ccc2nnn3c4ccc(O)cc4c(=O)c1c23", "false"),
    ("COC(=O)/C=C\\[C@@H]1[C@H](C)N1S(=O)(=O)c1ccc(C)cc1 (stereo partly specified)", "false"),
    ("C=C1C(=O)OC2CC(C)C(C(O)CC(C)O)=CCC12 (stereo unspecified)", "false"),
    ("O=C1CCCCCCCCCCC1CN1CCCC1 (stereo unspecified)", "false"),
    ("CO[C@@H]1[C@@H](OC2OC(C)C(OC3CC(C)(O)C(OC(=O)CC(C)C)C(C)O3)C(N(C)C)C2O)[C@@H](CC=O)C[C@@H](C)C(=O)/C=C/C2O[C@H]2C[C@@H](C)OC(=O)C[C@H]1OC(C)=O (stereo partly specified)", "false"),
    ("CC1CNC(NS(=O)(=O)c2cc(C(=O)Nc3ccc(F)cc3)c(Cl)cc2S)=NN1 (stereo unspecified)", "false"),
]

---

System: CAKI-1
experiment_description: NCI tumour cell line growth inhibition, 48 h
Activity calls are given as the source filed them. Cut-off read from the data, not from the text of the source: active = GI50 up to about 1.1 µM and inactive = higher.

# compound, GI50
measured = [
    ("COc1ccc2nc(NC(=O)C(=O)C(C#N)c3ccc(Cl)c(Cl)c3)sc2c1 (configuration not stated)", "> 100 µM (inactive)"),
    ("CCOC(CNc1nn2c(C)nnc2s1)OCC", "> 100 µM (inactive)"),
    ("COc1nc2ncc([C@@H](OC(C)=O)[C@@H](COC(C)=O)OC(C)=O)nc2c(=O)[nH]1", "> 100 µM (inactive)"),
    ("O=C1/C(=C/c2ccccc2O)N=C(c2ccccc2)N1c1nc2ccccc2s1", "32.7 µM (inactive)"),
    ("COc1ccc(/N=C2\\C(=O)Nc3ccc(Br)cc32)cc1", "14.4 µM (inactive)"),
    ("NS(=O)(=O)c1cc2c(cc1Cl)NC(Cc1ccccc1)NS2(=O)=O (configuration not stated) [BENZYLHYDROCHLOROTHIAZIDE]", "> 100 µM (inactive)"),
    ("O=C(O)C1CCCCC1c1c2ccc(=O)cc-2oc2cc(O)ccc12 (configuration not stated)", "31.8 µM (inactive)"),
    ("CCCCCCCNC(P(=O)(O)O)P(=O)(O)O", "> 100 µM (inactive)"),
    ("Nc1ncn([C@@H]2C=C(CO)C(O)C2O)c(=O)n1 (some centres not stated)", "98.4 µM (inactive)"),
    ("COC1=CC(=O)c2c(O)c3c(c(O)c2C1=O)OC1(Oc2c(cc4cc(C)oc(=O)c4c2O)CC1O)C3O (configuration not stated)", "21.7 µM (inactive)"),
    ("CCSC(=O)C1(C)OC2CCCCC2C1=O (configuration not stated)", "> 100 µM (inactive)"),
    ("O=C(CCC(=O)Nc1ccccc1C(F)(F)F)N/N=C1\\C(=N\\NC(=O)CCC(=O)Nc2ccccc2C(F)(F)F)C(c2ccc3c(c2)OCO3)Oc2ccccc21 (configuration not stated)", "10.1 µM (inactive)"),
    ("CC(=O)C1C(=O)C(=O)N(c2ccccc2C(C)C)C1=O (configuration not stated)", "> 100 µM (inactive)"),
    ("N=C(Cc1ccccc1)NCC(=O)O", "> 100 µM (inactive)"),
    ("Cc1nc(C)c(N2CCN(C#N)CC2)c(O)n1", "> 100 µM (inactive)"),
    ("COC(=O)c1ccc2c(c1)CCN2C(=O)c1cc2c(cc1Br)OCO2", "4.7 µM (inactive)"),
    ("COC(=O)c1ccccc1/C=C1\\Cc2ccc3c(c2C1=O)CCC3", "> 100 µM (inactive)"),
    ("CC(C)=CCN1c2ccccc2[C@@]2(CC=C(C)C)CCN(C)[C@@H]12 [(+)-DEBROMOFLUSTRAMINE B]", "26.8 µM (inactive)"),
    ("CCO/C=N\\C1=C(C#N)SC2=N/C(=C\\c3ccco3)C(=O)N21", "> 100 µM (inactive)"),
    ("C=C=C(CC1CCCCC1=O)S(=O)(=O)c1ccccc1 (configuration not stated)", "> 10 µM (inactive)"),
    ("O=NN(CCCl)C(=O)NC1CCSc2ccccc21 (configuration not stated)", "> 100 µM (inactive)"),
    ("CCCCN1/C(=N/Nc2n[nH]c(=O)c3ccccc23)SCC1c1ccc(Cl)cc1 (configuration not stated)", "20.3 µM (inactive)"),
]
